H1650 GFP Flourescence EC50 reference
# measured-on: EGFR on EGFR positive non-small cell lung cancer cells NCI-H1650 (UniProt P00533 25-1210)
# measurement-description: cell-based or functional assay
Show the value, then the unit it is measured in.

# input Quick one: H1650 GFP Flourescence EC50 for AbG-AAD (antibody, human IgG1, kappa, V domains shown, synthon AAD on reduced interchain cysteines; average DAR 3.4 per ADC) VH: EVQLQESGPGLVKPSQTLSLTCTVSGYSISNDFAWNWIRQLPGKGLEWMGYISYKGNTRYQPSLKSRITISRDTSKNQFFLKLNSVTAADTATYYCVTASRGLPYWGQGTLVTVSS VL: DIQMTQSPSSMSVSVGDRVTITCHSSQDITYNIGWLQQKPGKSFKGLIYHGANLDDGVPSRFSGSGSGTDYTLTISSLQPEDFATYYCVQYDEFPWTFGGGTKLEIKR ?
# output 0.03 mg/L

# input Query: H1650 GFP Flourescence EC50; subject: AbB-ZT (antibody, human IgG1, kappa, V domains shown, synthon ZT on reduced interchain cysteines; average DAR 1.4 per ADC) VH: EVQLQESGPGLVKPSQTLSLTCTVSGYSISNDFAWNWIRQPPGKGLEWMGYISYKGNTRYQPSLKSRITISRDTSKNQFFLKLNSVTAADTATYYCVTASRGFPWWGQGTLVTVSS VL: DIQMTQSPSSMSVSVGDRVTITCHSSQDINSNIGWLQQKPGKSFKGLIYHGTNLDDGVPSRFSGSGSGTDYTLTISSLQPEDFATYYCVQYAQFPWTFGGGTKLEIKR
# output 0.64 mg/L

# input Form field: reported H1650 GFP Flourescence EC50 of AbA-ZT (antibody, human IgG1, kappa, V domains shown, synthon ZT on reduced interchain cysteines; average DAR 2 per ADC) VH: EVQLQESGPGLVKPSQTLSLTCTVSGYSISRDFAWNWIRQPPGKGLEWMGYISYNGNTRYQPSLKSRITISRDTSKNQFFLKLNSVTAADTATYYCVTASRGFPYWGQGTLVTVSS VL: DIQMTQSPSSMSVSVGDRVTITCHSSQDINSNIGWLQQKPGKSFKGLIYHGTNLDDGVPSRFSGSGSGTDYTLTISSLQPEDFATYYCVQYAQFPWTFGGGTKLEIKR
# output 1.13 mg/L

# input Returns the measured H1650 GFP Flourescence EC50 for the input binder. Input: AbG-WD (antibody, human IgG1, kappa, V domains shown, synthon WD on reduced interchain cysteines; average DAR 3.4 per ADC) VH: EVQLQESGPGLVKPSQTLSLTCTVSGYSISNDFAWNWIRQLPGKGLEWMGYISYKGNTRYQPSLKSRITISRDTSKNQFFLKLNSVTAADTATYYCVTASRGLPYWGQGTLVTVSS VL: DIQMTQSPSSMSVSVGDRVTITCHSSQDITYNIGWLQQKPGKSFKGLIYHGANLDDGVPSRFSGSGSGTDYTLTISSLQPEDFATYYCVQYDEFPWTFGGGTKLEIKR
# output 0.36 mg/L

# input Fill in: H1650 GFP Flourescence EC50 of AbG-SE (antibody, human IgG1, kappa, V domains shown, synthon SE on reduced interchain cysteines; average DAR 3.8 per ADC) VH: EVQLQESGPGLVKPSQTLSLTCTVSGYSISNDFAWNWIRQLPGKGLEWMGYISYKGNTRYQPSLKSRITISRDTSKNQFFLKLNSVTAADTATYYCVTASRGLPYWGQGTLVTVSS VL: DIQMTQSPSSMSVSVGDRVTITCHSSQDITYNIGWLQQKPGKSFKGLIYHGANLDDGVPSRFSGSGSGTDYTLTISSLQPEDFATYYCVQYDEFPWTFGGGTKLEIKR is ___
# output 0.99 mg/L

# input Could you tell me which H1650 GFP Flourescence EC50 is on file for AbA-AAD (antibody, human IgG1, kappa, V domains shown, synthon AAD on reduced interchain cysteines; average DAR 3.3 per ADC) VH: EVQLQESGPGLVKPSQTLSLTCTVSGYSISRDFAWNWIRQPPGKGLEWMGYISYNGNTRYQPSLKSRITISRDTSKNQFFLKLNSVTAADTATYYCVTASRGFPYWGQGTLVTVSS VL: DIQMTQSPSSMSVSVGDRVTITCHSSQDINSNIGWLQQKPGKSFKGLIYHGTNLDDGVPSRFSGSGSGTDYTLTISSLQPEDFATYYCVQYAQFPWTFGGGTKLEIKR ?
# output 0.36 mg/L

# input Which H1650 GFP Flourescence EC50 value belongs to AbK-WD (antibody, human IgG1, kappa, V domains shown, synthon WD on reduced interchain cysteines; average DAR 1.7 per ADC) VH: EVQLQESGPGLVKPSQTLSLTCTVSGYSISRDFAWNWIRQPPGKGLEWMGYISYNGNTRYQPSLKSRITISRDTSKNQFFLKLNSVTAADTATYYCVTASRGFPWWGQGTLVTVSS VL: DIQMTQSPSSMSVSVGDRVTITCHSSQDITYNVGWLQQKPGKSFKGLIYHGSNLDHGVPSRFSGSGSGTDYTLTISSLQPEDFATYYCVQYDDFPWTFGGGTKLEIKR ?
# output 2.57 mg/L

# input I'd like to know its H1650 GFP Flourescence EC50. The binder in question is AbK-AAA (antibody, human IgG1, kappa, V domains shown, synthon AAA on reduced interchain cysteines; average DAR 1.6 per ADC) VH: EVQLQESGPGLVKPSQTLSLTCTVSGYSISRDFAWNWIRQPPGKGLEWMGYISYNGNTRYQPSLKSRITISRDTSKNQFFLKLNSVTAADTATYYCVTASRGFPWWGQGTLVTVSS VL: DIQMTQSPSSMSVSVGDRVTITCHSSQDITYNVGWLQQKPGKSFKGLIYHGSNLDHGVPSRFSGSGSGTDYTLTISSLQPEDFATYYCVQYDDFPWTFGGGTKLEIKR
# output 0.16 mg/L

# input Query: H1650 GFP Flourescence EC50; subject: AbK-SE (antibody, human IgG1, kappa, V domains shown, synthon SE on reduced interchain cysteines; average DAR 2.7 per ADC) VH: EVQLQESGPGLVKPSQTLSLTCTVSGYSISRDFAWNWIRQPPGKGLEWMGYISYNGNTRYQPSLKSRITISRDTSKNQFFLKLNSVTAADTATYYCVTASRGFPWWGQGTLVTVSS VL: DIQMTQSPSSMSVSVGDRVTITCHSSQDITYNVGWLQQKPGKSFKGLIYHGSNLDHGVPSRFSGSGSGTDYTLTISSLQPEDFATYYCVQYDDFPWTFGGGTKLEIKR
# output 1.68 mg/L

# input Value lookup for H1650 GFP Flourescence EC50; key = AbA-TV (antibody, human IgG1, kappa, V domains shown, synthon TV on reduced interchain cysteines; average DAR 3.7 per ADC) VH: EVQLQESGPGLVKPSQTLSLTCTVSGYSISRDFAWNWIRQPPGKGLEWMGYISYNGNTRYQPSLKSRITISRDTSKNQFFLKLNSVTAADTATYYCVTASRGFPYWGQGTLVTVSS VL: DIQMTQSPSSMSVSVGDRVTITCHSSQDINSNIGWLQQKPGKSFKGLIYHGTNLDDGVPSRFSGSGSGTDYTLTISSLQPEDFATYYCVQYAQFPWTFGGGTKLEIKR
# output 0.69 mg/L

Source of measurements: patent US20240199745A1
